Every entry's value here was drawn from the supplement of paper PMC5412046.

Test system: SB.msgc-1
Test: viability at highest tested concentration (MAXR) relative to DMSO; higher = less cytotoxic
Conditions: SB.msgc-1 (sporadic gastric cancer)
Observable: viability (%)
# value in %; strip the unit string

Example compounds with recorded viability:
### Prompt Which viability value is on record for Cc1cccc(-c2[nH]c(C(C)(C)C)nc2-c2ccc3c(c2)OCO3)n1 (top concentration 46.0829 µM) ?
### Response 22.8

### Prompt How about O=C(O)c1cccnc1Nc1cccc(C(F)(F)F)c1 [Niflumic acid] (top concentration 46.0829 µM) ?
### Response 67.9

### Prompt Lookup Cc1ccc(Nc2nccc(N(C)c3ccc4c(C)n(C)nc4c3)n2)cc1[S+](N)(=O)[O-] [Pazopanib] (top concentration 46.0829 µM)
### Response 43.9

### Prompt Also check Cc1cccc(Nc2nc(-c3ccncc3)cs2)c1 (top concentration 46.0829 µM)
### Response 55.6

### Prompt Would you mind doing NCCS(=O)(=O)O [Taurine] (top concentration 46.0829 µM) as well?
### Response 101

### Prompt What do you get for CCN1\C=C(\C(O)=O)C(=O)C2=CC=C(C)N=C12 [Nalidixic acid] (top concentration 46.0829 µM) ?
### Response 95.8

Query compound follows.
### Prompt Recorded viability for CC(C(=O)O)c1ccc(-c2ccccc2)c(F)c1 (configuration not stated) [Flurbiprofen] (top concentration 46.0829 µM) , please?
### Response 32.6

* * *

System: SB.mhdgc-1
Experiment: AC50 for growth inhibition (viability) (log10 M); higher = less potent
Conditions: SB.mhdgc-1 (hereditary c.1380delA CDH1 gastric cancer)
Observable: AC50 for growth inhibition (log10 M)
Answer with a bare number; do not write a unit.

The following compounds have reported results that may help.
### Prompt Param item = Cc1cnc(Nc2ccc(CN3CCOCC3)cc2)nc1Nc1cccc([S+](=O)([O-])NC(C)(C)C)c1 [TG-46] ; retrieve measured AC50 for growth inhibition (log10 M).
### Response -4.68

### Prompt Now consider COc1cnc(N[S+](=O)([O-])c2ccc(N)cc2)nc1 [Sulfameter] and answer again.
### Response -5.53

### Prompt How about this compound: "Cc1cccc2c1CC[C@H](CN1CCC(c3c(Cl)cccc3Cl)CC1)C[C@@H]2O"
### Response -4.73

### Prompt Also check COc1c(C)c2c(c(O)c1C/C=C(\C)CCC(=O)O)C(=O)OC2 [Mycophenolic acid]
### Response -5.48

### Prompt What do you have for O=C(Nc1ccccc1-c1cn2c(CN3CCNCC3)csc2n1)c1cnc2ccccc2n1 [SRT1720] ?
### Response -4.58

### Prompt Quick one: CCC[C@@H](C=O)NC(=O)[C@H](CC(C)C)NC(=O)[C@H](CC(C)C)NC(=O)OCc1ccccc1 [MG-115]
### Response -5.98

Others:
### Prompt Tell me the measured AC50 for growth inhibition (log10 M) of "COC1=CC=CC2=C1C(=NC(=N2)C3=CC=CS3)NN4C(=O)\C=C(C)/C4=O" , please.
### Response -5.18

### Prompt What about NC1(C(=O)N[C@@H](CCO)c2ccc(Cl)cc2)CCN(c2ncnc3[nH]ccc23)CC1 [AZD-5363] ?
### Response -5.23

### Prompt And what about the compound "N=c1c2c(-c3ccccc3)c(-c3ccccc3)n(Cc3ccccc3)c2ncn1[C@H]1CC[C@H](O)CC1" ?
### Response -4.58
